Target: human glucagon-like peptide-1 (GLP-1) receptor (human, UniProt P43220 24-463)
Assay: cell-based or functional assay
quantity: cAMP EC50 (nM)
Note: unit nM is implicit; provide only the numeric part.

Would you please look over these solved cases?
YXEGTXTSDXSIXLDXIAQXEFIKXLIEGGKSSGAPPPS (Aib2, αMeF(2F)6, 4Pal10, αMeL13, Orn16, Aib20, K24(Z), αMeY25, K31(Z), C-terminal NH2; Z = AEEA2-CO-(CH2)12-CO2H) [Example 193] ... 0.382
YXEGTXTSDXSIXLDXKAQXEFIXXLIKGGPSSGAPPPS (Aib2, αMeF(2F)6, 4Pal10, αMeL13, Orn16, K17(Z), Aib20, D-Glu24, αMeY25, K28(Z), C-terminal NH2; Z = AEEA-(γ-Glu)-(4-(4-tert-butylphenyl)butanoyl)) [Example 208] ... 0.238

Q. If you can, please state the reported cAMP EC50 value of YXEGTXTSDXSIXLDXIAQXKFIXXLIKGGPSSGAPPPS (Aib2, αMeF(2F)6, 2Nal10, αMeL13, Orn16, Aib20, K21(Z), D-Glu24, αMeY25, K28(Z), C-terminal NH2; Z = AEEA2-(γ-Glu)-CO-(CH2)12-CO2H) [Example 253] .
A. 0.43
